From: patent US20110143948A1

Test system: ncRNAs (SEQ ID NO 28-89)
Assay: ncRNA arrays of melanocytes, keratinocytes, normal skin, melanoma cell lines and patient samples
Set-up: species or system human
Settings: melanoma patient 27 sample compared to normal skin
Measured ncRNA array expression, patient 27, listed per entry.
Give your answer as a number; write no unit.

Recorded results for 3 substances are shown here.
Q) Any idea what its ncRNA array expression, patient 27 is? The substance is SEQ ID NO 73 (AAAGTTTCCCCATAATGCTCTTGCAAGTGAATATGAGCTGTGGTTTTTGCAGTGGAGTTA; listed as DNA, chemistry not given here; listed as Homo sapiens)
A) 0.1447

Q) Continue with SEQ ID NO 78 (ATGGAAAGGCCAGGGGAGGGTGGAGCTCAGGAGTGGAAGCACAGGGACTAAGGCCTGAGC; listed as DNA, chemistry not given here; listed as Homo sapiens)
A) −3.653

Q) Continue with SEQ ID NO 69 (AGAGTTCGCACTGGGAAGAGTTAAAAAATAAACATTTACAAGGACGAGGAAAGCGGCCCC; listed as DNA, chemistry not given here; listed as Homo sapiens)
A) −0.7594

Attention now turns to another entry.
Q) Recorded ncRNA array expression, patient 27 of SEQ ID NO 38 (GTAAACAAGGTCTCACAAAAACAGCTGACCACACCATAAAATCACTGAGACCGAGCCTGC; listed as DNA, chemistry not given here; listed as Homo sapiens) , please.
A) −1.317

---

System: ncRNAs (SEQ ID NO 28-89)
Assay: ncRNA arrays of melanocytes, keratinocytes, normal skin, melanoma cell lines and patient samples
Set-up: species or system human
Conditions: melanoma patient 26 sample compared to normal skin
Method: An ncRNA array platform that contains over 10,000 putative (>200 nt) ncRNAs including most of the known ncRNAs in mouse and human was conducted to evaluate ncRNAs within melanoma. Lack of coding potential was estimated by an algorithm that scores various characteristics of protein-coding genes, including open reading frame length, synonymous/non-synonymous base substitution rates and similarity to known proteins. […]
Under this convention, MET denotes ncRNA array expression, patient 26 strictly below -0.9 and NOT MET denotes ncRNA array expression, patient 26 at or above -0.9.

Look over these answered cases.
Q) Hello, I'm reviewing records and need to know if ncRNA array expression, patient 26 of SEQ ID NO 76 (TGTTTCTAATGCATACTGTGAAAGGAAAAAAAATCACAGTTATCCACCTTCTCAGGGCCT; listed as DNA, chemistry not given here; listed as Homo sapiens) is below -0.9. Could you check?
A) MET

Q) Another substance to look at: SEQ ID NO 34 (TTTTCTCTGCTTATTACCCTCCCTGTTTCCTCCTGGGCTGCCAACAACATATTATATTAC; listed as DNA, chemistry not given here; listed as Homo sapiens)
A) NOT MET

Q) Request: SEQ ID NO 65 (CACCGTTTTACTTTTTGTGGGGAGGGGAAGCAGTATCAAAATTTCTTCGGGCGCCAGAAC; listed as DNA, chemistry not given here; listed as Homo sapiens)
A) MET

Q) // next record SEQ ID NO 60 (ACTAACAGCACTGGAGGGTGTAGTGTTTCCTACTTTATGGATGAGTGTACTGTGGGCTTC; listed as DNA, chemistry not given here; listed as Homo sapiens)
A) NOT MET

Q) And what about the substance SEQ ID NO 37 (ACGCACTGGGCGTTGAAGCAGTGCTTTCTGGATTAAATACGAAATACTGATGTCACAAGC; DNA, backbone and methylation of C not given here; listed as Homo sapiens) ?
A) NOT MET

Next up:
Q) State whether -0.9 exceeds ncRNA array expression, patient 26 recorded for SEQ ID NO 43 (CTTAATCCACATTTGTTTTGAATTTTTCTGATTCCTATAGTACCATACTCTGATGCCTAT; listed as DNA, chemistry not given here; listed as Homo sapiens) .
A) MET
